The origin of these recorded values is the supplement of paper PMC10126150.

test system: ATP; assay: switch fluorescence ratio, 500 uM ATP over buffer (Cy3 cluster intensity, sum of 5 cycles each) (fold (ratio)); higher = stronger signal-on switching upon ATP binding; sequences stand for … in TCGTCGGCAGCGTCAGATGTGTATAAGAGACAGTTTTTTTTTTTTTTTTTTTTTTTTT…TC; details: aptamer strand: ATP DNA aptamer (quencher-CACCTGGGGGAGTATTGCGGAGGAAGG + anchor), 100 nM annealed; ATP concentration: 500 uM;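 further: ATP exposure 15 min at 22 °C before imaging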
measured_quantity: switch fluorescence ratio
Number, no unit, nothing else.

Entry AATAAGGGGC , system ATP: what switch fluorescence ratio was measured?;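 further: ATP exposure 15 min at 22 °C before imaging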
1.01

Also check TTTGAATTTT
0.998

Next sequence: TATTAAGGAT
1

Now the sequence CTTTTGAGGA
0.995

// query: GGGTGAAGGT
0.987

What about GCGGCTGTGG ?
0.986

Would you mind doing TTTAGACTGG as well?
1
